Sourced from paper PMC6930660

Molecular target: rat α-glucosidase
Experiment: α-glucosidase inhibitory activity assay (FUJIFILM kit, maltose substrate, glucose measured by mutarotase-GOD method)
Details: rat α-glucosidase, 18.5 mM maltose, maleic anhydride buffer pH 6.0, 37 °C, 30 min; mean ± S.D. of n = 2
measurement label: IC50 (µM)

Worked examples follow.
O=C(OC[C@H]1OC[C@H](O)[C@@H](O)[C@@H]1O)c1cc(O)c(O)c(O)c1 [Compound 34]; 127
O=C(OC[C@H]1OC[C@H](O)[C@@H](OC(=O)c2cc(O)c(O)c(O)c2)[C@@H]1O)c1cc(O)c(O)c(O)c1 [Compound 39]; 55
O=C(OC[C@H]1OC[C@H](OC(=O)c2cc(O)c(O)c(O)c2)[C@@H](O)[C@@H]1OC(=O)c1cc(O)c(O)c(O)c1)c1cc(O)c(O)c(O)c1 [Compound 43]; 9.34
O=C(OC[C@H]1OC[C@H](O)[C@@H](O)[C@@H]1OC(=O)c1cc(O)c(O)c(O)c1)c1cc(O)c(O)c(O)c1 [Compound 40]; 26.6
O=C(OC[C@H]1OC[C@H](OC(=O)c2cc(O)cc(O)c2)[C@@H](OC(=O)c2cc(O)cc(O)c2)[C@@H]1OC(=O)c1cc(O)cc(O)c1)c1cc(O)cc(O)c1 [Compound 56]; 9.34

a: O=C(O[C@H]1[C@H](OC(=O)c2cc(O)c(O)c(O)c2)[C@@H](CO)OC[C@@H]1OC(=O)c1cc(O)c(O)c(O)c1)c1cc(O)c(O)c(O)c1 [Compound 41]
b: O=C(O[C@H]1[C@H](O)[C@@H](O)CO[C@@H]1CO)c1cc(O)c(O)c(O)c1 [Compound 33]
# input Which one would you say has the larger IC50 value: a , or b ? I would appreciate it if you answered with the label of your choice.
# output b
(b: 144 µM, a: 6.72 µM)

a: O=C(O[C@H]1[C@H](O)[C@@H](OC(=O)c2cc(O)c(O)c(O)c2)CO[C@@H]1CO)c1cc(O)c(O)c(O)c1 [Compound 36]
b: O=C(O[C@H]1[C@H](O)[C@@H](CO)OC[C@@H]1O)c1cc(O)c(O)c(O)c1 [Compound 32]
c: O=C(OC[C@H]1OC[C@H](OC(=O)c2ccc(O)c(O)c2)[C@@H](OC(=O)c2ccc(O)c(O)c2)[C@@H]1OC(=O)c1ccc(O)c(O)c1)c1ccc(O)c(O)c1 [Compound 55]
# input Order the 3 molecules from highest to lowest IC50. Give me the labels in the order the question wants.
# output b, a, c
(b: 138 µM, a: 48.3 µM, c: 3.28 µM)

---

Biological target: rat α-glucosidase
Assay: α-glucosidase inhibitory activity assay (FUJIFILM kit, maltose substrate, glucose measured by mutarotase-GOD method)
Settings: rat α-glucosidase, 18.5 mM maltose, maleic anhydride buffer pH 6.0, 37 °C, 30 min; mean ± S.D. of n = 2
// IC50 lookup, one value per entry

COC(=O)c1ccc(O)cc1 [Methyl 4-hydroxybenzoate, methyl 4-hydroxybenzoate, reference compound]; > 660 µM

# input For COC(=O)c1cc(O)cc(O)c1 [Methyl 3,5-dihydroxybenzoate, methyl 3,5-dihydroxybenzoate, reference compound] , write its IC50.
# output > 300 µM

# input Hello, please tell me recorded IC50 for this one: COC(=O)c1ccc(O)c(O)c1 [Methyl 3,4-dihydroxybenzoate, methyl 3,4-dihydroxybenzoate, reference compound]
# output > 300 µM
